# Experimental system: Kappa-type opioid receptor (Homo sapiens)
# Sequence (P41145 whole entry): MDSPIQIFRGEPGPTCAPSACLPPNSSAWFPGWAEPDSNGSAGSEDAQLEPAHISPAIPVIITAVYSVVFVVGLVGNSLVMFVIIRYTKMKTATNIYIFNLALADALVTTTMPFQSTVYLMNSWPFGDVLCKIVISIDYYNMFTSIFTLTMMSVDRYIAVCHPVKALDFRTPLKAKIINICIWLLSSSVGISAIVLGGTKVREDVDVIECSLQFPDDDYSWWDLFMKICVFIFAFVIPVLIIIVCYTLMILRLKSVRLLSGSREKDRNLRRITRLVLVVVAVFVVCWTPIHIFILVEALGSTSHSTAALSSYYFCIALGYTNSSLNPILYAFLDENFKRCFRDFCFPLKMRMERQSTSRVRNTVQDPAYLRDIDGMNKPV
pKi: −log10 of the molar value.

Compound	pKi
COc1cccc(CC(NC(=O)CNCc2ccccc2)C(=O)OC(C)C)c1I (stereo not drawn)	5.84
COc1cccc(CC2NC(=O)CN(Cc3ccccc3)C2=O)c1I (stereo not drawn)	6.03
COC(=O)C(Cc1cccc(OC)c1I)NC(=O)CNC(C)c1ccccc1 (stereo not drawn)	6.12

###

# Species on record: Homo sapiens
# Assay notes: Selectivity ratio of Ki for displacement of [3H]DADLE from human DOR expressed in CHO cell membranes to Ki for displacement of [3H]U69593 from human KOR expressed in HEK cell membranes
Observable: Ratio Ki

Compound	Result
COC(=O)C(Cc1cccc(OC)c1I)NC(=O)CN(C)Cc1ccccc1 (stereo unspecified)	> 40
COC(=O)C(Cc1cccc(OC)c1I)NC(=O)CCNCc1ccccc1 (stereo unspecified)	> 8
COC(=O)C(Cc1cccc(OC)c1C)NC(=O)CNCc1ccccc1 (stereo unspecified)	> 53
COc1cccc(CC2NC(=O)CN(CCc3ccccc3)C2=O)c1I (stereo unspecified)	> 1.9
COc1cccc(CC(NC(=O)CNCc2ccccc2)C(=O)OC(C)C)c1I (stereo unspecified)	> 7
COc1cc(CC2NC(=O)CN(Cc3ccccc3)C2=O)c(I)c(OC)c1 (stereo unspecified)	> 20
